Target: STAT5a (SH2 domain) (Homo sapiens, UniProt P42229)
Sequence (P42229 1-794): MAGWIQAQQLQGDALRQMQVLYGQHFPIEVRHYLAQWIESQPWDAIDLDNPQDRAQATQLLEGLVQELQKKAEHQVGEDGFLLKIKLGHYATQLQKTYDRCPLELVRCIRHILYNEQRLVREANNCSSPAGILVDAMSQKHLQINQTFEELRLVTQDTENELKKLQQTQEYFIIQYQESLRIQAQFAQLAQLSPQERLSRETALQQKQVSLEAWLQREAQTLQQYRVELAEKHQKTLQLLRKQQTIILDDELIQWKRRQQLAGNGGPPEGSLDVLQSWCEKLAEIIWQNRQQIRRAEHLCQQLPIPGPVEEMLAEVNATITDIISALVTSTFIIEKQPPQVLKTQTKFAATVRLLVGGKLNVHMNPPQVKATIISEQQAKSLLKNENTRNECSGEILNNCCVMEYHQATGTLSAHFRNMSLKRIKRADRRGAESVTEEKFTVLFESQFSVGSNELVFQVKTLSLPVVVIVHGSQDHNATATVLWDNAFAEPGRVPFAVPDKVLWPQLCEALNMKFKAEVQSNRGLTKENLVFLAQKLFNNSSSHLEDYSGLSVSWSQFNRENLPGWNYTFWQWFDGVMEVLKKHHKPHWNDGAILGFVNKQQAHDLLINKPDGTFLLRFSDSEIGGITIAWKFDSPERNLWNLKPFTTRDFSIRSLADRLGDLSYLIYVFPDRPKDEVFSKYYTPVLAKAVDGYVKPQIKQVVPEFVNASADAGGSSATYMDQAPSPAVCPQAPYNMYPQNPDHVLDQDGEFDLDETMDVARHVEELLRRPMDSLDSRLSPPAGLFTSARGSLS
pKi: −log10 of the molar value.
Listing of recorded pKi by entry.

{"MOLECULE": "COC(=O)[C@H](Cc1ccc(OP(=O)(O)O)c(OP(=O)(O)O)c1)NC(=O)OCC1c2ccccc2-c2ccccc21", "pKi": 5.11}
{"MOLECULE": "O=C(NCCc1ccc(OP(=O)(O)O)c(OP(=O)(O)O)c1)OCC1c2ccccc2-c2ccccc21 [compound 7, Fmoc-protected dopamine bisphosphate]", "pKi": 4.80}

Taken from paper PMC4471549.
